B1: tRNA (parent)
chain: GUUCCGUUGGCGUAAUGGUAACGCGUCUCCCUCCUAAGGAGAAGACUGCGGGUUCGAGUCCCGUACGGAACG

variants of: B1; assay: yeast fitness relative to wild type (ratio to wild type); higher = fitter; tRNA-Arg(CCU), competitive growth, 37 C, YPD
This sample holds only a part of the variants without activity.

| variant-string | qualifier-sign | yeast fitness |
| --- | --- | --- |
| G25C C30U A70C | = | 0.596 |
| A21G C49G G56C | ≤ | 0.5 |
| C4G G23C C66A | ≤ | 0.5 |
| C11U G51C U59G | = | 0.534 |
| C27G C34U C49U C66G | ≤ | 0.5 |
| C5G A15G U54A C55G | ≤ | 0.5 |
| G10A G48A C55A | ≤ | 0.5 |
| A21G G56C C62A | ≤ | 0.5 |
| A15G A21G C34G A45G A65C | = | 0.67 |
| U19A C30G A36G A57U A65U | ≤ | 0.5 |
| G10A C31U G38C G67A | ≤ | 0.5 |
| C5G A14C C29A C31G A65C | ≤ | 0.5 |
| G23A C46A G58A | = | 0.566 |
| C4A C30U G38C A42G | ≤ | 0.5 |
| C27G C30U C66U | ≤ | 0.5 |
| C11U A20C U47G | ≤ | 0.5 |
| A21C C27U C33A A37C | = | 0.554 |
| G12A A15C C62U C66G | ≤ | 0.5 |
| C29G C49U G63A | = | 0.513 |
| U7C C24A | = | 0.623 |
| G9A U16A A42C U53C A65C | ≤ | 0.5 |
| U2G A15U C24G U53A U64A | ≤ | 0.5 |
| C29U C30A A65U | ≤ | 0.5 |
| C5G C24U C46A G68U | ≤ | 0.5 |
| C4U C24G U26A U28G | = | 0.539 |
| C5A C11G U28A A40U C55A | ≤ | 0.5 |
| U2G C4U C27A C66A | ≤ | 0.5 |
| C27U C33G A57G | ≤ | 0.5 |
| C31A C49G | = | 0.64 |
| U26G C55G | = | 0.636 |
| A20C G44A C60A G67A | ≤ | 0.5 |
| A36C G50C U53C | ≤ | 0.5 |
| G44A G51C | = | 0.572 |
| G48A U53C C60A C61U | ≤ | 0.5 |
| G10C A45U G48C | = | 0.53 |
| C5U U19C C24G C61A A70G | ≤ | 0.5 |
| C27U G51C C55A | ≤ | 0.5 |
| U16G G39C A42U U54C C55G U64A | ≤ | 0.5 |
| C29G C46U G56A | ≤ | 0.5 |
| U7A G39A A45G U47G | = | 0.623 |
| A42U A43U A57G | = | 0.534 |
| C27G C49U G63C | ≤ | 0.5 |
| A21U A45U G51A C55G A65C | ≤ | 0.5 |
| C4A G18A G58A A70U | ≤ | 0.5 |
| A43G G63A | = | 0.745 |
| C5G C22U U28G | ≤ | 0.5 |
| U3A G12A | = | 0.826 |
| U28C G41A | = | 0.783 |
| U13A A36G G56A | = | 0.679 |
| C31U U54C U59C | = | 0.562 |
| G6A G17C G18C A45G G58A | ≤ | 0.5 |
| C11A C27G C31U G68A | ≤ | 0.5 |
| A15U C22G G58C G68A | ≤ | 0.5 |
| A42G C60G C61G | ≤ | 0.5 |
| G6C G41A C62U | ≤ | 0.5 |
| C22A A45U G63A | = | 0.558 |
| U3A U13C A69U | = | 0.72 |
| A20C C60A | = | 0.587 |
| C4U C27G | = | 0.656 |
| C30G U32G C46G C66U | ≤ | 0.5 |
| C29U C62U A70C | = | 0.604 |
| C22G U28A G67C | ≤ | 0.5 |
| U19C U26A U32A | = | 0.541 |
| U16C C29G U53A | ≤ | 0.5 |
| C31G G41A G52C C60U C62G | = | 0.53 |
| C11G A15U C24G A40G C62U A70C | = | 0.614 |
| C11G A21U U26C | ≤ | 0.5 |
| C5G C11G A21C G67C | ≤ | 0.5 |
| U3C C30G A43C | = | 0.548 |
| C30U C49G | = | 0.718 |
| U8G C22G G48A C60A U64C A69C | = | 0.561 |
| C4U A37C | = | 0.884 |
| C11G C29G C49U G63A | ≤ | 0.5 |
| U13C C46U | = | 0.886 |
| U28C C33G G38A U54C U64G | ≤ | 0.5 |
| G6C A21G A57C | ≤ | 0.5 |
| U16A G17A A20G C22G C61U G68C | = | 0.559 |
| C5G C30U C31G C46U | ≤ | 0.5 |
| A14G G48C G67C | ≤ | 0.5 |
| G12C C24U A40U | ≤ | 0.5 |
| C5U A15G U16A A20G U28A C30A C33A A36U | ≤ | 0.5 |
| U7A C55G G58C | ≤ | 0.5 |
| C62G C66G | = | 0.553 |
| G12A A20C A65U | = | 0.57 |
| C27G A40U U59C | = | 0.543 |
| G39A A70U | = | 0.915 |
| C29U U53A C61U | = | 0.685 |
| C5G U53C A65C | ≤ | 0.5 |
| A21C C34G A36G C46A C66A A70G | ≤ | 0.5 |
| A15U C24A C34G G39U G58C | ≤ | 0.5 |
| U2G A21G A57C G63A | ≤ | 0.5 |
